# tested target: HIV-1 JR-CSF Env N295A (HIV-1 JR-CSF) (UniProt P20871)
# protocol details: cell-based or functional assay
test readout: Fold IC50 increase relative to wild-type (fold)
Please state the figure in fold; there is no need to write the unit.

Please review the entries below; each comes with its answer.
| binder | result unit | Fold IC50 increase relative to wild-type |
| --- | --- | --- |
| PGT-126 (antibody, V domains shown) VH: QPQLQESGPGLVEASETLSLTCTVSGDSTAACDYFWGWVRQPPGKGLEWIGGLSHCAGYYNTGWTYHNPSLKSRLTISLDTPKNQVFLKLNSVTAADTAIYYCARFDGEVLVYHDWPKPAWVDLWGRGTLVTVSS VL: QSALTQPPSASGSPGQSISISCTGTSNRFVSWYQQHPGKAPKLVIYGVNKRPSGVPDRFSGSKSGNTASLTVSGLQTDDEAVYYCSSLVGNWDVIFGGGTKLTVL | fold | 0.9 |
| PGT-130 (antibody, V domains shown) VH: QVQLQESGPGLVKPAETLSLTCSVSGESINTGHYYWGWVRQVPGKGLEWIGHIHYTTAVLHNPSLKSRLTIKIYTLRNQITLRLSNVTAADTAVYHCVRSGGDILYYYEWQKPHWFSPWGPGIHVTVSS VL: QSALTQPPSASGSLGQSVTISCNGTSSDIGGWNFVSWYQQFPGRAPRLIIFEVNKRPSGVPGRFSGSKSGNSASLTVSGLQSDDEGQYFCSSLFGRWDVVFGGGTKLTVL | fold | 0.7 |

Prompt: Dear colleague, I am looking for the recorded Fold IC50 increase relative to wild-type of the following binder: PGT-127 (antibody, V domains shown) VH: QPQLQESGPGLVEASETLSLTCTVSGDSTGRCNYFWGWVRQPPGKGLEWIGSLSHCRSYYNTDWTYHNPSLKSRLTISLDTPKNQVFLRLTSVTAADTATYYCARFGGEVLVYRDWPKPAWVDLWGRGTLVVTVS VL: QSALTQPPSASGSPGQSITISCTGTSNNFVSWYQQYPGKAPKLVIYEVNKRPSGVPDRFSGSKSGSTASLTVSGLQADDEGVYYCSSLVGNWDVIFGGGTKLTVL
Completion: 2.3
